Tested on: Staphylococcus aureus
Experiment: Potentiation of oxacillin induced antibacterial activity against Staphylococcus aureus MW2 NRS123 assessed as oxacillin MIC at 16 uM measured after 16 to 20 hrs in presence of 2% NaCl by microdilution broth method (reference value: 16 mg/L)
Assay type: functional
For each entry below, report its MIC value.
Respond numerically; units are µg/mL and should not be typed.

# CS(=O)(=O)/C(C#N)=C/c1cc(-c2ccc(Cl)c(Cl)c2)ccc1F with Staphylococcus aureus: MIC is 0.5

The compound CS(=O)(=O)/C(C#N)=C/c1c(F)ccc(Cc2ccc(Cl)c(Cl)c2)c1F on Staphylococcus aureus: MIC was 0.5

Query CS(=O)(=O)/C(C#N)=C/c1cc(Cc2ccc(Cl)c(Cl)c2)ccc1OC(F)(F)F on Staphylococcus aureus; MIC returned: 0.12
